Data provenance is patent US8669271B2.

Exercise: for every item that follows, state its recorded pEC50.
system: human GPR119 (Homo sapiens, UniProt Q8TDV5)
Construct: expression vector for human GPR119 cDNA (Acc. No. NP_848566)
Sequence (Q8TDV5 whole entry): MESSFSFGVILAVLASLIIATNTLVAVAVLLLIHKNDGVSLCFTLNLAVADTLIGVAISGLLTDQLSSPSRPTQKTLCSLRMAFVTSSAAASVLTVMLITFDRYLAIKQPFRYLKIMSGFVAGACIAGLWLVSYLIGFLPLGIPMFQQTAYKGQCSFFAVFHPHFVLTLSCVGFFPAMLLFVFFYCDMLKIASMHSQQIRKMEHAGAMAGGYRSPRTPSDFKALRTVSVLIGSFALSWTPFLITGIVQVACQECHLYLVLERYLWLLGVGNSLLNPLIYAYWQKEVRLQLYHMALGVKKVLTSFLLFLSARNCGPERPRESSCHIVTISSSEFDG
assay-text: AlphaScreen cAMP assay in Min-6/hGPR119 cells (activation of GPR119, intracellular cAMP)
measurement-context: MIN6 cells stably transfected with human GPR119; cAMP by AlphaScreen after 45 minutes incubation at room temperature
Give bare numbers, as −log10 of the molar value.

| compound | pEC50 |
| --- | --- |
| CC(C)OC(=O)N1CCC(C2Cc3cc(-c4ccc(CC(=O)N5CC(F)(F)C5)cc4)ccc3O2)CC1 (stereo not shown) [Example 136] | 7.96 |
| CC(C)(C)OC(=O)N1CCC(C2Cc3cc(-c4ccc(S(C)(=O)=O)cc4F)ncc3O2)CC1 (stereo not shown) [Example 23] | 7.74 |
| COC1CCN(C(=O)c2ccc(-c3ccc4c(c3)CC(C3CCN(C(=O)OC(C)C)CC3)O4)cc2)CC1 (stereo not shown) [Example 127] | 7.60 |

QUERY: Can you look up pEC50 on human GPR119 (Homo sapiens, UniProt Q8TDV5) for CCNC(=O)c1ccc(-c2cc3c(cn2)OC(C2CCN(C(=O)OC(C)(C)C)CC2)C3)cc1 (stereo not shown) [Example 32] ?
RESULT: 7.68
